Target: T1, Human CD98 ECD with C-terminal His-tag (human, UniProt P08195 105-529)
T1 construct: also called huCD98 ECD; recombinant human CD98 extracellular domain
T1 sequence: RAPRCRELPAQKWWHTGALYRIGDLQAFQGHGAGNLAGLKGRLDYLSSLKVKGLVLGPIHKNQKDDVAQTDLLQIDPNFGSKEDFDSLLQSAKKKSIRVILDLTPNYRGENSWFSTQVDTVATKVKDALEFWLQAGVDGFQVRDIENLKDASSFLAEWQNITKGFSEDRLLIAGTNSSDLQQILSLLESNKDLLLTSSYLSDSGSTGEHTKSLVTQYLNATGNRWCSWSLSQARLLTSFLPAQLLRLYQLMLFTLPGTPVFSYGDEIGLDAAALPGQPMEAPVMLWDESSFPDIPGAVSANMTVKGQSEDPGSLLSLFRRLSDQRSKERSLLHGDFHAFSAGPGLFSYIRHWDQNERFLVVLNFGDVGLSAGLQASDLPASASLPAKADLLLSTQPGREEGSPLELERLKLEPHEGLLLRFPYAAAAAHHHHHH
Assay: SPR Biacore, anti-Fc capture of mAb, CD98 ECD analyte
measure: koff

Recombinant anti-CD98 chimeric antibody chAb1 (antibody, human IgG1, V domains shown) VH: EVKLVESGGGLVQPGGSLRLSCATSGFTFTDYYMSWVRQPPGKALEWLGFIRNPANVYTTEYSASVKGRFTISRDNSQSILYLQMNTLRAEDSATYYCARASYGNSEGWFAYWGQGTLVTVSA VL: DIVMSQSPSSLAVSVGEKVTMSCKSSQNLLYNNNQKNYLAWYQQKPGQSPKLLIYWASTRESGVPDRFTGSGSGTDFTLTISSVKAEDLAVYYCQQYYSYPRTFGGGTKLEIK : 1.5e-05 s⁻¹
Recombinant anti-CD98 chimeric antibody chAb6 (antibody, human IgG1, V domains shown) VH: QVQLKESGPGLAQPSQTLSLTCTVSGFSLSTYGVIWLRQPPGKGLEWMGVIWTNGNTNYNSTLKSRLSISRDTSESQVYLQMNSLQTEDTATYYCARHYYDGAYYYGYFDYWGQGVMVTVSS VL: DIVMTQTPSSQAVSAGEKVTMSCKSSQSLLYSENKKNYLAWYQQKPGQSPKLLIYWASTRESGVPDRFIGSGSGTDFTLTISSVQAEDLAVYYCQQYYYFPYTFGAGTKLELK : 0.00014 s⁻¹

Now for another entry.
Lookup: Recorded koff for Recombinant anti-CD98 chimeric antibody chAb10 (antibody, human IgG1, V domains shown) VH: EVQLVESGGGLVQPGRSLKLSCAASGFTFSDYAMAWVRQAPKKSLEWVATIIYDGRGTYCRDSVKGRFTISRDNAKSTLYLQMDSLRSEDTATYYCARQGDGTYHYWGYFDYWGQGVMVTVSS VL: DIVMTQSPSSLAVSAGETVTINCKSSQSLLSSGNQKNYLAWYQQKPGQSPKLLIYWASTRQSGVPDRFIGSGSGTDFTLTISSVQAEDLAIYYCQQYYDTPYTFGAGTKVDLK , please?
Found: 0.00033 s⁻¹
